- System: Swiss-Webster male mice
- Experiment description: Mouse Activity and Screen Test (MAST): screen test (ST)
- Assay type: in vivo
- Test parameters: lowest dose at which an A rating (60-100%) is achieved, screen test; intraperitoneally
- Description: Treatments are administered intraperitoneally one hour prior to testing. […] Compounds are dissolved or suspended in 0.2% Methocel. Control animals are injected with Methocel. The compounds are identified in the Examples.
Readout kind: MAST ST LAD

Below, 3 compounds whose answers are already recorded.
{"Compound": "OC[C@H]1O[C@@H](n2cnc3c(NCC(c4ccccc4)c4cccc(Cl)c4)ncnc32)[C@H](O)[C@@H]1O (stereo partly shown)", "MAST ST LAD": ">100 mg/kg"}
{"Compound": "COC(=O)C(CNc1ncnc2c1ncn2[C@@H]1O[C@H](CO)[C@@H](O)[C@H]1O)(c1ccccc1)c1ccccc1", "MAST ST LAD": ">30 mg/kg"}
{"Compound": "Nc1nc(NCC(c2ccccc2)c2ccc(Cl)cc2)c2ncn([C@@H]3O[C@H](CO)[C@@H](O)[C@H]3O)c2n1 (stereo partly shown)", "MAST ST LAD": ">100 mg/kg"}

Let's switch to this compound now.
Lookup: What value of MAST ST LAD has been reported for the following compound? "CC(CNc1ncnc2c1ncn2[C@@H]1O[C@H](CO)[C@@H](O)[C@H]1O)(c1ccccc1)c1ccccc1"
Found: >100 mg/kg

* * *

- System: rat heart
- Experiment description: Coronary blood flow (PCS2A): isolated perfused heart
- Test parameters: heart rate, isolated perfused rat heart; read-out: PCS2A HR ED50
- Procedure: CORONARY BLOOD FLOW (PCS2A) Male rats (400-600 gms) are pretreated with Na haparin 2000 units and anesthetized with Na pentobarbital (50 mg/kg) administered intraperitoneally. […] The electrocardiogram (ECG) is recorded using two platinum electrodes positioned at the base and apex of the left ventricle. […] Measurements are for heart rate (HR) and coronary flow (CF). […] HR is calculated from the ECG strip chart recording and CF is calculated by recording analog outputs from pumps 1 and 2. […]
pEC50: −log10 of the molar value.
Listed next: entries and their corresponding pEC50.

{"Compound": "OC[C@H]1O[C@@H](n2cnc3c(NCCCCC(c4ccccc4)c4ccccc4)ncnc32)[C@H](O)[C@@H]1O", "pEC50": 5.52}
{"Compound": "COc1ccc(C(CNc2ncnc3c2ncn3[C@@H]2O[C@H](CO)[C@@H](O)[C@H]2O)c2ccccc2)cc1 (stereo partly drawn)", "pEC50": "< 5.52"}

Now for the compound whose pEC50 we want.
Lookup: I'd like to know its pEC50. The compound in question is Nc1nc(NCC(c2ccccc2)c2ccc(F)cc2)c2ncn([C@@H]3O[C@H](CO)[C@@H](O)[C@H]3O)c2n1 (stereo partly drawn)
Found: < 5.00

* * *

- Tested on: rat heart
- Experiment description: Coronary blood flow (PCS2A): isolated perfused heart
- Test parameters: heart rate, isolated perfused rat heart; read-out: PCS2A HR ED50
Readout kind: pEC50
Lab note — pEC50 values are minus log10 of concentrations in M.

Worked set:
{"Compound": "CC(=O)OC[C@H]1O[C@@H](n2cnc3c(NCC(c4ccccc4)c4ccccc4)ncnc32)[C@H](OC(C)=O)[C@@H]1OC(C)=O", "Measured on": "rat heart", "pEC50": 5.66}
{"Compound": "CC(CNc1ncnc2c1ncn2[C@@H]1O[C@H](CO)[C@@H](O)[C@H]1O)(c1ccccc1)c1ccccc1", "Measured on": "rat heart", "pEC50": 5.52}
{"Compound": "COC(=O)C(CNc1ncnc2c1ncn2[C@@H]1O[C@H](CO)[C@@H](O)[C@H]1O)(c1ccccc1)c1ccccc1", "Measured on": "rat heart", "pEC50": 5.52}
{"Compound": "OC[C@H]1O[C@@H](n2cnc3c(NCC(c4ccccc4)c4ccc(F)cc4)ncnc32)[C@H](O)[C@@H]1O (stereo partly drawn)", "Measured on": "rat heart", "pEC50": 5.85}

Lookup: Return reported pEC50; argument: "OC[C@H]1O[C@@H](n2cnc3c(NCC(O)(c4ccccc4)c4ccccc4)ncnc32)[C@H](O)[C@@H]1O"
Found: 6.30
